- protocol_summary: acute toxicity in the rat
- condition_info: in vivo, intravenous, read-out: LD50 i.v.

compound | LD50
O=C(O)CSCC(=O)NC1CCSC1=O (stereo not shown) [PV 144] | > 3500 mg/kg
